Test system: UACC-62
Test: NCI tumour cell line growth inhibition, 48 h
Calls of active or inactive are those of the source. Rule as the data show it: active = GI50 up to about 1.1 µM and inactive = higher.
Give GI50 for every item shown.

Each compound below has a reported value. Please supply its GI50.
1. CCCC(OCC)(OCC)OCC
2. CCOC1CC(C)N(C(=O)c2ccccc2)O1 (stereo not given)
3. CCCN(CCC)c1cc2c(cc1F)c(=O)c(C(=O)O)cn2-c1ccc(N2CCN(C)CC2)cn1
4. COc1cc(O)c2c(=O)c(OC)c(-c3ccc4c(c3)OCO4)oc2c1OC

A.
> 100 µM (inactive)
> 100 µM (inactive)
18.5 µM (inactive)
> 50 µM (inactive)

Give GI50 for all compounds that follow.
1. Cn1cnc([N+](=O)[O-])c1Sc1nccn1-c1ccccc1
2. Cc1ccccc1S(=O)(=O)Nn1cnc2ccc(S(=O)(=O)Nc3ccc(Cl)cc3)cc2c1=O
3. CCCCCCCCCCCCCCCc1nnc(SCC(=O)O)[nH]1
4. CC(C)(C)C1=CC(=C2C=Cc3cc(O)ccc3O2)C=C(C(C)(C)C)C1=O

A.
1. 35.2 µM (inactive)
2. 27.5 µM (inactive)
3. 42.2 µM (inactive)
4. 1.38 µM (inactive)

Provide each entry's GI50 from the list below.
1. NC(CCC(=O)NC(CSCC1C(=O)Nc2ccccc21)C(=O)NCC(=O)O)C(=O)O (stereo not given)
2. COCc1nc(C#N)c(N)o1
3. CC(C)CCC[C@@H](C)C1CCC2[C@@H]3CC=C4C[C@@H](C(=O)NCCN(C)C)CC[C@]4(C)C3CC[C@@]21C (stereo not given in full)
4. COC(=O)c1nn2ccc3ccccc3c2c1C(=O)OC
5. CC1(C)OC(CP(c2ccccc2)c2ccccc2)C(CP(c2ccccc2)c2ccccc2)O1 (stereo not given)

A.
1. 8.32 µM (inactive)
2. > 10 µM (inactive)
3. 42.4 µM (inactive)
4. 36.6 µM (inactive)
5. 1.97 µM (inactive)

Batch lookup, GI50 per entry.
1. CCOc1ccc(/C=C(\Cl)c2ccc(OC)cc2)cc1
2. c1cnc2c(c1)ccc1cccnc12

A.
1. > 100 µM (inactive)
2. 3.81 µM (inactive)
